# assay.procedure: Serum Equol levels of mice given soy hydrogel and probiotic via drinking water
# Type: in vivo
# experimental.conditions: mouse, oral, positive control: Equol supplemented directly in hydrogel, no Nissle strains
result.type: concentration at 1 week

[ask] What does the data say about its concentration at 1 week? Entry: Oc1ccc([C@H]2COc3cc(O)ccc3C2)cc1
[reply] ~5 µM
